TESTED TARGET: canine TRPM8 (Canis lupus familiaris, UniProt Q1A7N1)
Sequence (Q1A7N1 1-1104): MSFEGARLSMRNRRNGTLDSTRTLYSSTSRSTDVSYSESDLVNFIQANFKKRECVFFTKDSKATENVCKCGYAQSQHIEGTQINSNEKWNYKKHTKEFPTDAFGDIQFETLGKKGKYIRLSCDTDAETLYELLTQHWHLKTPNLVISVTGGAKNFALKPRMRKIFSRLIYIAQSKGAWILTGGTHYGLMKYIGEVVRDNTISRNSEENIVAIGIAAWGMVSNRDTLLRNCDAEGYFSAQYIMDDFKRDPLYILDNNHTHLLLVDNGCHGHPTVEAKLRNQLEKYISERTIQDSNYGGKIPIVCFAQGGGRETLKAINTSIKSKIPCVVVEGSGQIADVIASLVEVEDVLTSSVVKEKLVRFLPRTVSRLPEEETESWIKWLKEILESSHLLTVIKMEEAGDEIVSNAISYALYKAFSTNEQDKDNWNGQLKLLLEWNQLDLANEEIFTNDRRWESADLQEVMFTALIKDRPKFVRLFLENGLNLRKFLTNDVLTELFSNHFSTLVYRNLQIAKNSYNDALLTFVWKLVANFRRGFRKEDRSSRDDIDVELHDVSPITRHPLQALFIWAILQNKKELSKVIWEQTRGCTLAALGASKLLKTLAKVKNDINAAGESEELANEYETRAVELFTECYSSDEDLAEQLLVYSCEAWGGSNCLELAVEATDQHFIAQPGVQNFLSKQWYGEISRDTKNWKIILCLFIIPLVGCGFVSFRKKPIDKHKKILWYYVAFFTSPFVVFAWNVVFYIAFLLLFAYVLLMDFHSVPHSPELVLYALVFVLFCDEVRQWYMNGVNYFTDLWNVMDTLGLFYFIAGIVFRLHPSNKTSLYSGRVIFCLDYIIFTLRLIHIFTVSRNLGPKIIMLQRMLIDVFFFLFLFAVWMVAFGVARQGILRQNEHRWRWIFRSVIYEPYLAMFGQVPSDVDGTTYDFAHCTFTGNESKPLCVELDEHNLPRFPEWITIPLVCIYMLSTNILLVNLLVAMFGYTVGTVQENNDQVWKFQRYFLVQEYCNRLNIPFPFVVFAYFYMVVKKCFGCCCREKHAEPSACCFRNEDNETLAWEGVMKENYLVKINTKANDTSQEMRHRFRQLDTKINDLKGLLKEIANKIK
EXPERIMENT DESCRIPTION: In Vitro Canine TRPM8 Functional Assay (icilin-induced intracellular Ca2+ fluorescence, FLIPR/FDSS)
COND: icilin challenge (~80% maximal response); HEK293 cells stably expressing canine TRPM8; eight-point dose-response
pIC50: −log10 of the molar value. Counter-ions that a name gives are not always drawn.
MEASUREMENT LABEL: pIC50

[1] FC1(F)CCC(/C=C/c2nc3cc(-c4ccccc4C(F)(F)F)cc(C(F)(F)F)c3[nH]2)CC1 [Compound 47, hydrochloride salt]
[2] CC1(/C=C/c2nc3cc(-c4c(C(F)(F)F)cccc4C(F)(F)F)ccc3[nH]2)CCOCC1
Task item: Response body: label of entry with the larger pIC50; valid values 1 , 2 . Respond using the label that marks the chosen record.
Reply: 1

[I] Cc1cc(-c2ccccc2OC(F)(F)F)cc2nc(C=CC3CCCCC3)[nH]c12 [Compound 48, hydrochloride salt]
[II] FC1=CCC(C=Cc2nc3cc(-c4ccccc4F)ccc3[nH]2)CC1 (stereo not shown) [Compound 36, hydrochloride salt]
Task item: Lab log: flag the item ( I or II ) with the smaller pIC50 figure. Respond using the label that marks the chosen record.
Reply: II

----------
TESTED TARGET: canine TRPM8 (Canis lupus familiaris, UniProt Q1A7N1)
EXPERIMENT DESCRIPTION: In Vitro Canine TRPM8 Functional Assay (icilin-induced intracellular Ca2+ fluorescence, FLIPR/FDSS)
COND: icilin challenge (~80% maximal response); HEK293 cells stably expressing canine TRPM8; eight-point dose-response
pIC50: −log10 of the molar value. Where a name gives a salt, the structure may show the parent alone.
MEASUREMENT LABEL: pIC50

FC1(F)CCC(C=Cc2nc3cc(-c4ccccc4OC(F)(F)F)ccc3[nH]2)CC1 [Compound 37, hydrochloride salt] :: 8.10
COc1ccc(F)cc1-c1ccc2[nH]c(C=CC3CC=C(F)CC3)nc2c1 (stereo not drawn) [Compound 33, hydrochloride salt] :: 8.05
Cc1ccccc1-c1ccc2[nH]c(C=CC3CCCCC3)nc2c1 :: 8.15
